# Activity per record follows
Test system: HUVEC
Assay: Inhibition of LPS-induced neutrophil adhesion in HUVEC cells assessed as neutrophil adhesion to cell monolayer at 20 uM for 6 hrs pretreated with LPS for 4 hrs by fluorescence microplate reader assay (reference value: 86%)
Type: functional, Homo sapiens
Set-up: scale not given: the % may be the effect or the level left
Respond numerically; units are % and should not be typed.

> print(dat)
                            structurestring  testedtarget  propertymeasured  unitsymbol  assayresult
1  O=c1cc(-c2ccc(O)c(O)c2)oc2c([C@@H]3O[C@H](CO)[C@@H](O)[C@H](O)[C@H]3O)c(O)cc(O)c12         HUVEC          Activity           %           41
2  O=C(/C=C/c1ccc(O)c(O)c1)OCc1ccc(O[C@@H]2O[C@H](CO)[C@@H](O)[C@H](O)[C@H]2O)cc1         HUVEC          Activity           %           73
3  O=Cc1ccc(O[C@@H]2O[C@H](CO)[C@@H](OC(=O)/C=C/c3ccc(O)c(O)c3)[C@H](O)[C@H]2O)cc1         HUVEC          Activity           %           33

Task: Look at this compound and give its reported Activity. O=Cc1ccc(O[C@@H]2O[C@H](COC(=O)/C=C/c3ccc(O)c(O)c3)[C@@H](O)[C@H](O)[C@H]2O)cc1
Output: 30
